Recorded Efficacy by entry
Target: Mu-type opioid receptor (Rattus norvegicus) (UniProt P33535)
Sequence (P33535 whole entry): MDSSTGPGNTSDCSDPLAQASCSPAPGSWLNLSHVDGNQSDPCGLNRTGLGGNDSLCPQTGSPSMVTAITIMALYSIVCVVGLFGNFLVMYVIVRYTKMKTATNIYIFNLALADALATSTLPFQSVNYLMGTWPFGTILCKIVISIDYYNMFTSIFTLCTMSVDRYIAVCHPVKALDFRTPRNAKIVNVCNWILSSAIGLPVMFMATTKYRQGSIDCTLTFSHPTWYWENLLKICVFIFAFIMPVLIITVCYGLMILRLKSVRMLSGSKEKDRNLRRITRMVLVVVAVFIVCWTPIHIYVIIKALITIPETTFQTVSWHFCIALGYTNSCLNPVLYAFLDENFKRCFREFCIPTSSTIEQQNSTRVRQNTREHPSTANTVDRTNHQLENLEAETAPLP
Assay: Agonist activity at rat mu opioid receptor expressed in rat C6 cells assessed as stimulation of [35S]GTPgammaS binding at 10 uM after 1 hr by liquid scintillation counting relative to DAMGO
Assay type: functional, cell-based
Numbered stars: 1 amine (or outer) side, 2 acyl side, 3 side chain; on linkers, the order of the positions; unused ones are H or OH. Bridge positions count the residues as written; N and C are the ends. Square brackets hold non-standard residues; d marks the D form. Peptide text beside a SMILES is read from it. 1Nal = N[C@@H](Cc1cccc2ccccc12)C(=O)O; 2Nal = N[C@@H](Cc1ccc2ccccc2c1)C(=O)O; CH2 = C([*:1])[*:2]

[
  {
    "MOLECULE": "NC(=O)[C@@H]1CSCSC[C@@H](NC(=O)[C@@H](N)Cc2ccc(O)cc2)C(=O)N[C@@H](Cc2ccccc2)C(=O)N[C@@H](Cc2cccc3ccccc23)C(=O)N1 (H-Y[dC]F[1Nal]C-NH2; linker 2-5 via CH2)",
    "Efficacy [%]": 100
  },
  {
    "MOLECULE": "NC(=O)[C@@H]1CSSC[C@@H](NC(=O)[C@@H](N)Cc2ccc(O)cc2)C(=O)N[C@@H](Cc2ccc3ccccc3c2)C(=O)N[C@@H](Cc2ccccc2)C(=O)N1 (H-Y[dC][2Nal]FC-NH2; disulfide 2-5)",
    "Efficacy [%]": 34
  },
  {
    "MOLECULE": "NC(=O)[C@@H]1CSCSC[C@@H](NC(=O)[C@@H](N)Cc2ccc(O)cc2)C(=O)N[C@@H](Cc2ccccc2)C(=O)N[C@@H](Cc2ccc3ccccc3c2)C(=O)N1 (H-Y[dC]F[2Nal]C-NH2; linker 2-5 via CH2)",
    "Efficacy [%]": 99
  }
]
